# Tested on: PPARg:RXRa DBDmut IVT, anti-RXR (DBD mutation: RXRa K156A/R161A, NR concentration 270 nM, RXRa partner concentration 90 nM)
# procedureText: PBM binding z-score (relative to random genomic background probes); higher = stronger binding; sequences stand for … in GC…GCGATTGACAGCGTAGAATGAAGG

[
  {
    "residueCodes": "AATACAAGGTCACTAGGCCAGAGTAGGTACGAAT",
    "PBM binding z-score": 4.85
  },
  {
    "residueCodes": "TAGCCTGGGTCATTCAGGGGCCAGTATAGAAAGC",
    "PBM binding z-score": 0.888
  },
  {
    "residueCodes": "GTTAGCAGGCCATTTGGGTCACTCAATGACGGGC",
    "PBM binding z-score": 2.37
  },
  {
    "residueCodes": "CCTACTGGGCCAAGGTCATTGTTCAGTCAAAGCA",
    "PBM binding z-score": 3.1
  },
  {
    "residueCodes": "TCGGGTAGGTTAGGGGCATTCAGAATGGCGTCGA",
    "PBM binding z-score": 1.55
  },
  {
    "residueCodes": "TCATATAGGTAAACAGATGAAAGTCCGTAAGTTA",
    "PBM binding z-score": 3.98
  },
  {
    "residueCodes": "ACTATTAGTTGACTTTGGGCAACCGATACGACGC",
    "PBM binding z-score": -0.00927
  },
  {
    "residueCodes": "ACTATTAGTTGAGACGAGGGAAACCGATAGGTTG",
    "PBM binding z-score": 0.0625
  },
  {
    "residueCodes": "CCTTACGGGTCAAGGTTAAAGCACGGGTGGTACG",
    "PBM binding z-score": 1.83
  },
  {
    "residueCodes": "CGAACTAGGTCAGAACAGCACAGTGAAGGATGAT",
    "PBM binding z-score": 7.06
  },
  {
    "residueCodes": "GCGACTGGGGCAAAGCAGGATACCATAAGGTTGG",
    "PBM binding z-score": 4.62
  },
  {
    "residueCodes": "ATCTCTAAGTAAAAGTTCAGTGAATCCCGAGGAT",
    "PBM binding z-score": -0.124
  },
  {
    "residueCodes": "CCTACTAGGTCAATGGTCAGCTAAAGCAGCTCGC",
    "PBM binding z-score": 7.63
  },
  {
    "residueCodes": "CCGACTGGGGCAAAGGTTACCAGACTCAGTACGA",
    "PBM binding z-score": 4.51
  },
  {
    "residueCodes": "GGAATGAGGGCATTCGAGTTGATAGCATGGCGAT",
    "PBM binding z-score": 4.4
  },
  {
    "residueCodes": "AGAATGAGGTTATTAAGATCAGGCAATTGCGGTC",
    "PBM binding z-score": 2.95
  },
  {
    "residueCodes": "CGTCCAAGGTCAAGGTCAGTGGAAGAGACTCGAA",
    "PBM binding z-score": 3.54
  },
  {
    "residueCodes": "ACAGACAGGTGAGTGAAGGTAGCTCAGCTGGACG",
    "PBM binding z-score": 0.722
  },
  {
    "residueCodes": "CGTCCAAGGTCAATGCTATGTCAGTGAAAGCATT",
    "PBM binding z-score": 2.87
  },
  {
    "residueCodes": "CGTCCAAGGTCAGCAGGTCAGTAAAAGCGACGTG",
    "PBM binding z-score": 2.72
  },
  {
    "residueCodes": "TCTCAAAGTTCAAAGGTAACGTAAGTATCCACAC",
    "PBM binding z-score": 2.92
  }
]

---

Each record here notes measured PBM binding z-score.
# Test system: PPARg:RXRa 90nM:30nM, anti-RXR (NR concentration 90 nM, RXRa partner concentration 30 nM)
# procedureText: PBM binding z-score (relative to random genomic background probes); higher = stronger binding; sequences stand for … in GC…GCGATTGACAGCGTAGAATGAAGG

[
  {
    "residueCodes": "GCTTGTAGATCAAGGTTATGAAAGACTAAGCTAA",
    "systemTested": "PPARg:RXRa 90nM:30nM, anti-RXR (NR concentration 90 nM, RXRa partner concentration 30 nM)",
    "PBM binding z-score": 0.553
  },
  {
    "residueCodes": "CCTTACAGGTCACTCCAGGTTATAGCATCGGAGT",
    "systemTested": "PPARg:RXRa 90nM:30nM, anti-RXR (NR concentration 90 nM, RXRa partner concentration 30 nM)",
    "PBM binding z-score": 2.79
  },
  {
    "residueCodes": "ATCTCTAGGTAACCAAGTTAAGTGAATGCCGAAC",
    "systemTested": "PPARg:RXRa 90nM:30nM, anti-RXR (NR concentration 90 nM, RXRa partner concentration 30 nM)",
    "PBM binding z-score": 0.476
  },
  {
    "residueCodes": "TCATACAGGTAATACAGGTGAAAGTCGGCATCTA",
    "systemTested": "PPARg:RXRa 90nM:30nM, anti-RXR (NR concentration 90 nM, RXRa partner concentration 30 nM)",
    "PBM binding z-score": 3.1
  },
  {
    "residueCodes": "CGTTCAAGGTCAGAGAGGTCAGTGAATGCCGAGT",
    "systemTested": "PPARg:RXRa 90nM:30nM, anti-RXR (NR concentration 90 nM, RXRa partner concentration 30 nM)",
    "PBM binding z-score": 3.31
  },
  {
    "residueCodes": "GCTAGGAGGACAAGGTCAGAGCTTTGTCCGTAGA",
    "systemTested": "PPARg:RXRa 90nM:30nM, anti-RXR (NR concentration 90 nM, RXRa partner concentration 30 nM)",
    "PBM binding z-score": 0.93
  },
  {
    "residueCodes": "CCTACTGGGCCACGAAAGGTTATTGATTCAGTGA",
    "systemTested": "PPARg:RXRa 90nM:30nM, anti-RXR (NR concentration 90 nM, RXRa partner concentration 30 nM)",
    "PBM binding z-score": 1.69
  },
  {
    "residueCodes": "TCTTGTAGATCAACAGGAGGTTAGGAAAGATCGA",
    "systemTested": "PPARg:RXRa 90nM:30nM, anti-RXR (NR concentration 90 nM, RXRa partner concentration 30 nM)",
    "PBM binding z-score": 1.79
  },
  {
    "residueCodes": "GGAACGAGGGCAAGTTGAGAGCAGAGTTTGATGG",
    "systemTested": "PPARg:RXRa 90nM:30nM, anti-RXR (NR concentration 90 nM, RXRa partner concentration 30 nM)",
    "PBM binding z-score": 0.629
  },
  {
    "residueCodes": "ATCTCTAGGTCACCAAGTTCAGTGAATGCCGAAC",
    "systemTested": "PPARg:RXRa 90nM:30nM, anti-RXR (NR concentration 90 nM, RXRa partner concentration 30 nM)",
    "PBM binding z-score": 5.18
  },
  {
    "residueCodes": "TATACAGGTTCAAAGGCCAGAGTACGAATGTCGA",
    "systemTested": "PPARg:RXRa 90nM:30nM, anti-RXR (NR concentration 90 nM, RXRa partner concentration 30 nM)",
    "PBM binding z-score": 2.88
  },
  {
    "residueCodes": "TAGCCTAGGTAAGATCGGGCCAGTATACGCTATA",
    "systemTested": "PPARg:RXRa 90nM:30nM, anti-RXR (NR concentration 90 nM, RXRa partner concentration 30 nM)",
    "PBM binding z-score": -0.292
  },
  {
    "residueCodes": "ATATGTAGGTTATGGGGTCATTCAGTTTGCGCAT",
    "systemTested": "PPARg:RXRa 90nM:30nM, anti-RXR (NR concentration 90 nM, RXRa partner concentration 30 nM)",
    "PBM binding z-score": 7.31
  }
]
